system: AMPK; assay: AMPK activation effect (AMPK [pT172] ELISA) in MCF7 cells; assay type: cell-based, human; conditions: concentration at which AMPK activation reached 150%, 24 hours
OBSERVABLE: log10 of AC150 (log10 of the value in µM)

1) Cl.N=C(NC(=N)N1CC=CCC1)Nc1ccc(C(F)(F)F)cc1 ... 0.11
2) COc1ccc(NC(=N)NC(=N)N2CC=C(C)C2)cc1OC.Cl ... 1.33
3) CC1=CCN(C(=N)NC(=N)Nc2cccc(C(F)(F)F)c2)C1.Cl ... 0.18
4) CC1=CCN(C(=N)NC(=N)Nc2ccc(Cl)c(C(F)(F)F)c2)C1.Cl ... -0.09
5) CC1CCCCN1C(=N)NC(=N)Nc1ccc(OC(F)(F)F)c(F)c1.Cl (stereo not drawn) ... 0.23
